Catalogue of sequences with associated PBM binding z-score
Tested on: PPARg homodimer (NR concentration 180 nM)
procedure-details: PBM binding z-score (relative to random genomic background probes); higher = stronger binding; sequences stand for … in GC…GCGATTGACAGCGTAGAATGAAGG
property-label: PBM binding z-score

CCTACTGGGCCCTCAGGTCATTGATATCAACGTT; 0.88
CCCAGTAGGTTATGGGGCATTCAGGCAACGGTGA; 0.645
TCATATAGGTAAATGCTAGGTTAAAGTCCGATCT; 1.14
CCTTACGGGTCACGAGGTTATCGCACGACGAGCG; 3.23
GCAGACAGGTGAAAAGCAGGTAACTCAGGGTGGC; -0.799
CCGTCTGGGGCAAGGTTACCATAACGCACAGCCA; 0.46
ACAAGCAGGCCAAGTTTGGGTCACTCAAACAAAG; -0.0252
TTACCAAGGTGAAAGGTCGTAGATGCACGCCTTG; 2.17
CGAACTAGGTTATCCAGGACAGTGAATACATTGA; 0.877
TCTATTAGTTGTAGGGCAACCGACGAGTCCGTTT; 0.517
ATCTATAGGTAAAAGTTCAGTGAATCCCGAGGAT; 1.04
CGTCCAAGGTCAGAGAGGTCAGTGAATGCCGAGT; 5.38

----------
System: RARb:RXRa (NR concentration 270 nM, RXRa partner concentration 90 nM)
procedure-details: PBM binding z-score (relative to random genomic background probes); higher = stronger binding; sequences stand for … in GC…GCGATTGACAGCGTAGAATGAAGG
Returns one of t or f; t when PBM binding z-score is >= 2.

GATACAGGCTCAAGGCCAGAGTACGCGTATTGAT; f
CCTACTGGGCCAAAAAGGGCATTGATGCCGATAA; f
TCTTGTAGATCAACAGGAGGTTAAGAAGGATCGA; f
TTACCGAGGTGAGCTGAGGTCGTTGATCCAACTC; f
ACAGACAGGTGAGTGAAGGTAAATCAGCTGGACG; f
CGTCAGAGTTCAAGGTAACGTAACAGAAAGCAGC; t
CCTACTGGGCCACGAAAGGTCATGGATTCAGTGA; t
CATACTAGGTCACCGGAAGGTCAAAGTCCGCATG; t
ACAATGAGGTTACCAAAGATCAGGGAAACGCTTG; t
AGTCAAAGTTCATCTAGGTAACGTGAGATATGCT; t
CCAGACAGGTGAAAGGTAACACAGTCTGGTACGC; f

----------
Test system: PPARa:RXRa (NR concentration 270 nM, RXRa partner concentration 90 nM)
procedure-details: PBM binding z-score (relative to random genomic background probes); higher = stronger binding; sequences stand for … in GC…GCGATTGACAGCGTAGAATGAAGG
Returns one of Satisfied or Not satisfied; Satisfied when PBM binding z-score is >= 1.

CCGAGCAGGTTATGGGGCATTCAGGCAACGGTGA; Satisfied
ATCTCTCGGTAAGACTCAGTTCAGTGAAGAACGC; Not satisfied
CCTAGCAGGCCAGGGTCAATCAAGCATTTCGCTT; Satisfied
TCATATAGGTAATACAGGTGAAACTCGGCATCTA; Satisfied
TCGAGTAGGTTAGTCGGGACATTCAGCCAACATA; Not satisfied
CGAACTAGGTCAGAACAGCACAGTGAAGGATGAT; Satisfied

----------
Catalogue of sequences with associated PBM binding z-score
Tested on: LXRb homodimer (NR concentration 270 nM)
procedure-details: PBM binding z-score (relative to random genomic background probes); higher = stronger binding; sequences stand for … in GC…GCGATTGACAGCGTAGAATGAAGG
property-label: PBM binding z-score

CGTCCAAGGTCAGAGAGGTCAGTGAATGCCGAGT; 0.123
GCAAATAGGTAATACAAGGTGAAAGTCCGATTGT; -0.48
CAAACTAGGTCAATGGTCAAAGTCGAGCCAACCA; 0.29
ATCTCTATGTAAGACTCAGTTCAGTGAAGAACGC; 0.391
ATCTCTAGGTAACCAAGTTGAGTGAATGCCGAAC; 0.391
TCATATAGGTAATACAGGTGCAAGTCGGCATCTA; 0.358
CCTACTGGGCCAAAAAGGTCATTGACGCCGATAA; 0.108
CGTCCCAGGTCAAGGTCAGTGAAAGAGACTCGAA; 0.553
CCTATTAGTTGACCATAAGGGCAACCGGAGCTCG; 0.814
CCTTACGGGTCAGTCCAGGTTATAGCATCGGAGT; -0.12
ACTAACAGGCCAAGTTTGGGTCACTCAAACAAAG; 0.105
CCTACTAGTTGACCATAAGGGCAACCGAAGCTCG; 0.518

----------
Test system: PPARg DBDmut:RXRa IVT, anti-PPARg (DBD mutation: PPARg1 K132A/R137A, NR concentration 270 nM, RXRa partner concentration 90 nM)
procedure-details: PBM binding z-score (relative to random genomic background probes); higher = stronger binding; sequences stand for … in GC…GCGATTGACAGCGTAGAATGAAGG
property-label: PBM binding z-score

CTCGAAAGGTCGTTTGAGGTGAGTATACGGATAA; 1.09
TGTCCAAGTTCAAAGGTAACGTAAGTATCCACAC; 1.26
CCTTACGGGTCACGAGGTTTTAGCACGACGAGCG; 0.0926
TCAATTAGTTGAAGGGCAACCGACGAGTCCGTTT; -0.0622
ATATGTAGGTTATCGGGTCAATCAGTTTGCGCAT; 3.15
CAGCCTAAGTCAGGGCCAGTATAGGAGGAACGTT; -1.05
TGAATGAGGTCATAAGATCAGGGAACGTTGCAAA; 2.51
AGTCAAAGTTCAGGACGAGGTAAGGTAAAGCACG; 0.348
ATCTCTAGGTAAAAGCTCAGTGAATCCCGAGGAT; 0.208
TCTTGTAGATCAGCAAGTTAAGAAAGCTGGCCAA; 0.0136
CCTCGGACGACAGAAGGTCAGAGCTGTCCGCTTT; -1.28
ATCCCTAGGTAAAAGTTCAGTGAATCCCGAGGAT; -0.0921

----------
Tested on: VDR:RXRa (NR concentration 270 nM, RXRa partner concentration 90 nM)
procedure-details: PBM binding z-score (relative to random genomic background probes); higher = stronger binding; sequences stand for … in GC…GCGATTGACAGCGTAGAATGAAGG
Catalogue of sequences with associated PBM binding z-score
property-label: PBM binding z-score

TCTGCCAGGTCAGTTGGTCAGCTAACGAGCTGCC; 0.52
TCTGCTAGGTCAGTGGGTCAGCTAACGAGCTGCC; 1.5
ATATGTAAGTTAGCTGGGGTCATTCAGACTAGGC; 5.25
ACCGAAAGGTCGAGGTGAGTATAGAGAAAGGGAA; 2.82
CCTACTGGGCCAAAAAGGTCATGGATGCCGATAA; 4.54
GCATATAGGTCATACAAGGTGAAAGTCCGATTGT; 4.55
AGAATGAGGTTAAGATCGGGGAAACAGAATACAT; 1.18
GCTCGGAGGACAAGGGCAGAGCTTTGTCCGTAGA; -0.692
TCTCGGAGGACACGAAAGGACAGAGCTCGACATC; -0.146
GCTTACGGGTCAAAGGCTATAGCATGAATAGAAT; 3.47
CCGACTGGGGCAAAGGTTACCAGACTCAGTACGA; 1.64
CCTACTGGGCCACGAAAGGTTATTGATTCAGTGA; 0.818
TCATACAGGTAATACAGGTGAAAGTCGGCATCTA; 1.24
AGAACGAGGGCACGCTGGGTTGATAGCAGAGTAG; 2.53
TCATATAGGGAAATGCTAGGTGAAAGTCCGATCT; 0.702
CTACCAAGGTGAACAAGATCGTTGATTACTATTC; 1.31
CCTACTGGGCCAAGGTCATTGTTCAGTCAAAGCA; 3.15
ATCTCTAGGTAAAGATCGTTCAGTGAATGCAAAT; 0.221
ACAGACGGGTGAGTGAAGGTAACTCAGCTGGACG; -0.422
ATATGTAGGTTACAGCCGGGTCATTCAGGCTATG; 4.1
GGAACGAGGGCATTCGTGTTGATAGCATGGCGAT; 1.6
CCGACTGGGGCATAAGGTTACCCTAAGCCAGCCC; 0.27
TCTAGTTGGTCACGGAGGTCTCACACGACGGGTA; 1.65
TCTTGTATATCAATAGAGGTTAAGAAAGTGCGCT; 2.14
CGTCCAAGGTCAAAGAGGTCAGTGAATGCCGAGT; 7.77
GCGACTGGGGCATCAGCAGGTTACCAGAACTTAA; -0.205

All values here come from the supplement of paper PMC6555819.
